The entries below come with measured IC50 values attached.
Target: Cyclin-dependent kinase 2/cyclin E1 (Homo sapiens, UniProt P24941)
Assay: Inhibition of His-tagged CDK2/cyclin E1 (unknown origin) expressed in Sf9 cells using histone H1 as substrate in presence of ATP and [gamma33-P]ATP by radioisotope filter binding assay
measurement label: IC50 (nM)

1) CC(C)c1[nH]nc2c(NCc3ccc(-n4cccn4)cc3)nc(SCCCN(C)C)nc12: 75
2) NCCSc1nc(NCc2ccc(-c3ccccn3)cc2)c2[nH]nc(C3CCCC3)c2n1: 12
3) CC(C)c1n[nH]c2c(NCc3ccc(-n4ccnc4)cc3)nc(SCCN)nc12: 4
4) CC(C)c1[nH]nc2c(NCc3ccc(-n4cccn4)cc3)nc(S)nc12: 256
5) CC(C)c1[nH]nc2c(NCc3ccc(-n4cccn4)cc3)nc(S(C)(=O)=O)nc12: 53
6) CC(C)c1[nH]nc2c(NCc3ccc(-n4cccn4)cc3)nc(SCC(O)CO)nc12 (stereo not given): 5
7) CC(C)c1n[nH]c2c(NCc3ccc(-n4ccnc4)cc3)nc(SCCO)nc12: 12
8) CC(C)c1[nH]nc2c(NCc3ccc(-n4cccn4)cc3)nc(SCCO)nc12: 5
9) CC(C)c1[nH]nc2c(NCc3ccc(-n4cccn4)cc3)nc(SCC(N)CN)nc12 (stereo not given): 19
10) CC(C)c1n[nH]c2c(NCc3ccc(-n4ccnc4)cc3)nc(S)nc12: 2300

* * *

Target: Cyclin-dependent kinase 13/Cyclin-K (Homo sapiens, UniProt Q14004)
Sequence (Q14004 whole entry): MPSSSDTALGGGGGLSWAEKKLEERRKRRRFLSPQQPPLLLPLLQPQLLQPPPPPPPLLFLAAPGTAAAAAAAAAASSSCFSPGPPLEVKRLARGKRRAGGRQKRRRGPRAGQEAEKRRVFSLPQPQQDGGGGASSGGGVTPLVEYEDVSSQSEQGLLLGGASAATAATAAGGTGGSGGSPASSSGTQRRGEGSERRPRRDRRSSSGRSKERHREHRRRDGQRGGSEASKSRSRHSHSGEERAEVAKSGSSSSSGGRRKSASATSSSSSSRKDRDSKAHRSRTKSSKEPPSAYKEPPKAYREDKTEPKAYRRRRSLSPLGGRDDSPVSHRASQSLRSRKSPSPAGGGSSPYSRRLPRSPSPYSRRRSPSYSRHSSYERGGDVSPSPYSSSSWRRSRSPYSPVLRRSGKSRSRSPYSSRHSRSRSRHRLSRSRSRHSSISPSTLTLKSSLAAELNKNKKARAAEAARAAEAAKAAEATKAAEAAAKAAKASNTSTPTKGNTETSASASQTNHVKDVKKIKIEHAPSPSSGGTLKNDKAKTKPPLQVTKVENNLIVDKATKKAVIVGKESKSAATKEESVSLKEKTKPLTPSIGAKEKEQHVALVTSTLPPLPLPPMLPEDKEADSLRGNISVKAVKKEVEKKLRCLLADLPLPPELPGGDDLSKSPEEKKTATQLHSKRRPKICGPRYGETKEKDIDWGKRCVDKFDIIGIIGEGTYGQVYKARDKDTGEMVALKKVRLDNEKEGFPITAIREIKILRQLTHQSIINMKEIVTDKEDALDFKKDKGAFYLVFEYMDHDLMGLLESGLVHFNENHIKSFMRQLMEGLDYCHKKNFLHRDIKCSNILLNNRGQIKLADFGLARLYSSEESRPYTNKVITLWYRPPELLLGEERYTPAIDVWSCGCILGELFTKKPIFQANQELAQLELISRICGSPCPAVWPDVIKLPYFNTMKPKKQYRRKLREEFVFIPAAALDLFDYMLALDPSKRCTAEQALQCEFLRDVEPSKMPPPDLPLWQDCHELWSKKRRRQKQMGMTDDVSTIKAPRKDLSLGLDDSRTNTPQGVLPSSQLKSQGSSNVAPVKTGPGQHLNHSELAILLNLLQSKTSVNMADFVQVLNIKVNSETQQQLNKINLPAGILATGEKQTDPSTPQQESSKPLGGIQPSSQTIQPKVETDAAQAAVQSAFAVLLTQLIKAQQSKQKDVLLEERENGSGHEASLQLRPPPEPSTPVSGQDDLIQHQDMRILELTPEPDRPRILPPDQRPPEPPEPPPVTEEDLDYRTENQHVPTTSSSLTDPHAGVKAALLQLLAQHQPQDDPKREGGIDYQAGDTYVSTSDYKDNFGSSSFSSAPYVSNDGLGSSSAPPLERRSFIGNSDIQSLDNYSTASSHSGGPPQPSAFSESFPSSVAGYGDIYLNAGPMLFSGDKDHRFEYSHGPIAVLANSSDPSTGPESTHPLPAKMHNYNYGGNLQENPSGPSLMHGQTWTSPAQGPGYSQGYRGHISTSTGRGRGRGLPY
Sequence (O75909 whole entry, further chain): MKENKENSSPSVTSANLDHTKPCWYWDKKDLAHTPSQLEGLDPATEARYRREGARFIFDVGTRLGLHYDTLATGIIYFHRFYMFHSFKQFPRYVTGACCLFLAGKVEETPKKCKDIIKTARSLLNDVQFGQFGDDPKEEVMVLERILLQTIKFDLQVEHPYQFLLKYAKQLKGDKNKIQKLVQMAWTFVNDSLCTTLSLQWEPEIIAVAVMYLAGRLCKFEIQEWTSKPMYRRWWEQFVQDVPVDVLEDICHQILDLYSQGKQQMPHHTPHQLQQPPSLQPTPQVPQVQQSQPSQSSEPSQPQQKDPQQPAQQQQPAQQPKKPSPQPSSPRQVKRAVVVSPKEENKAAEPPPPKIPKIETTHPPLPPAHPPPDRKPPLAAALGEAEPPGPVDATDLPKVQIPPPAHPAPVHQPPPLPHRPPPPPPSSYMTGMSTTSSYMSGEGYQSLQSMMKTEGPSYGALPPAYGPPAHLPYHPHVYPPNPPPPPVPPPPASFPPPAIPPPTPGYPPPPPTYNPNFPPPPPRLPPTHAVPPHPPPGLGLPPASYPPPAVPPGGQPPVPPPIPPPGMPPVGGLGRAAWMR
Assay: Inhibition of GST-tagged human CDK13/Cyclin K expressed in Sf9 cells using RBER-IRStide peptide as substrate in presence of ATP and [gamma33-P] ATP by radioisotope filter binding assay
measurement label: log10(IC50) (log10 of the value in nM)

1) NCCSc1nc(NCc2ccc(-c3ccccn3)cc2)c2[nH]nc(C3CCCC3)c2n1: 2.52
2) CC(C)c1n[nH]c2c(NCc3ccc(-n4ccnc4)cc3)nc(SCCN)nc12: 1.83
3) CC(C)c1n[nH]c2c(NCc3ccc(-c4cnccn4)cc3)nc(SCCN)nc12: 1.34
4) CCc1cnn2c(NCc3ccc[n+]([O-])c3)cc(N3CCCC[C@H]3CCO)nc12: 1.32
5) NCCSc1nc(NCc2ccc(-n3cccn3)cc2)c2[nH]nc(C3CCC3)c2n1: 1.34
6) CC(O)CSc1nc(NCc2ccc(-n3cccn3)cc2)c2n[nH]c(C(C)C)c2n1 (configuration not stated): 2.09
7) NCCSc1nc(NCc2ccc(-c3ccccn3)cc2)c2[nH]nc(C3CCC3)c2n1: 1.08

* * *

Molecular target: CDK9/cyclin T1 (Homo sapiens)
Sequence (O60563 whole entry): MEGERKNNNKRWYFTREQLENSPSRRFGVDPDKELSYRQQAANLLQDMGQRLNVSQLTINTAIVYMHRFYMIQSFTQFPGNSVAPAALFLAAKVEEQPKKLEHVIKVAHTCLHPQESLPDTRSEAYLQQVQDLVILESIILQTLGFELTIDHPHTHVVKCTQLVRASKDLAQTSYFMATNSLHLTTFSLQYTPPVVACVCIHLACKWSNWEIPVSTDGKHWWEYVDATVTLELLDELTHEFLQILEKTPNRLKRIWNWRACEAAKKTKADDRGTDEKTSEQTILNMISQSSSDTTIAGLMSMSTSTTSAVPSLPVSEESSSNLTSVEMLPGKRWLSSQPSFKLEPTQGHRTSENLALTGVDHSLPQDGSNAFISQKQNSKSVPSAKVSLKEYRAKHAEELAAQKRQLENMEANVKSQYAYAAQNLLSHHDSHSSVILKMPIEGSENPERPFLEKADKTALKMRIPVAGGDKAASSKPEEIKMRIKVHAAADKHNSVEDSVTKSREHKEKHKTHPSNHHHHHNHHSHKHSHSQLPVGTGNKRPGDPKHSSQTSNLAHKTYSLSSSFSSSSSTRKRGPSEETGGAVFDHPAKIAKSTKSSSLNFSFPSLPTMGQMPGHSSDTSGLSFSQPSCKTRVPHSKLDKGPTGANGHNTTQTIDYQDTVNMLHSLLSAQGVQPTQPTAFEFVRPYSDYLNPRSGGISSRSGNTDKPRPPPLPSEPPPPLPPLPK
Sequence (P50750 whole entry): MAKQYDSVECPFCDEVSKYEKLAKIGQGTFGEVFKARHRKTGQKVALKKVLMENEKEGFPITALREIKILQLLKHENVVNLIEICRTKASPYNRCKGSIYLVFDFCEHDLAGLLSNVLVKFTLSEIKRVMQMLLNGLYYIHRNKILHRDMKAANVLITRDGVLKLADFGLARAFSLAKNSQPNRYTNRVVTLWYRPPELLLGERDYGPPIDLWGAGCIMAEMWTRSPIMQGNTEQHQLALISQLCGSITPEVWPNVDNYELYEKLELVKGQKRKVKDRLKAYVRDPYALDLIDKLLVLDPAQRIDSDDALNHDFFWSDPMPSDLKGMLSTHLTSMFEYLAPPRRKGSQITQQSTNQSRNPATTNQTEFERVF
Test: Inhibition of GST-tagged human CDK9/Cyclin T1 expressed in Sf9 cells using (YSPTSPS)2KK peptide as substrate in presence of ATP and [gamma33-P] ATP by radioisotope filter binding assay
Kindly apply the following: rule met if IC50 is less than 20 nM, rule not met in every other case.

1) CC(C)c1n[nH]c2c(NCc3ccc(-c4cnccn4)cc3)nc(SCCN)nc12: rule not met
2) CC(C)c1n[nH]c2c(NCc3ccc(-n4ccnc4)cc3)nc(SCCN)nc12: rule met
3) NCCSc1nc(NCc2ccc(-c3ccccn3)cc2)c2[nH]nc(C3CCCC3)c2n1: rule not met
4) NCCSc1nc(NCc2ccc(-c3ccccn3)cc2)c2[nH]nc(C3CCC3)c2n1: rule met
5) CC(O)CSc1nc(NCc2ccc(-n3cccn3)cc2)c2n[nH]c(C(C)C)c2n1 (stereo unspecified): rule not met

* * *

The entries below come with measured IC50 values attached.
Target: Cyclin-dependent kinase 2/cyclin E1 (Homo sapiens)
Test: Inhibition of His-tagged CDK2/cyclin E1 (unknown origin) expressed in Sf9 cells using histone H1 as substrate in presence of ATP and [gamma33-P]ATP by radioisotope filter binding assay
measurement label: IC50

1) CC(C)c1[nH]nc2c(NCc3ccc(-n4cccn4)cc3)nc(SCCN)nc12: 2 nM
2) CC(O)CNc1nc(NCc2ccc(-n3cccn3)cc2)c2n[nH]c(C(C)C)c2n1 (stereo unspecified): 37 nM
3) NCCSc1nc(NCc2ccc(-c3ccccn3)cc2)c2[nH]nc(C3CCC3)c2n1: 5 nM
4) CC(O)CSc1nc(NCc2ccc(-n3cccn3)cc2)c2n[nH]c(C(C)C)c2n1 (stereo unspecified): 6 nM
5) NCCSc1nc(NCc2ccc(-n3cccn3)cc2)c2[nH]nc(C3CCC3)c2n1: 4 nM
6) CC(C)c1[nH]nc2c(NCc3ccc(-n4cccn4)cc3)nc(SCC(O)CN)nc12 (stereo unspecified): 6 nM
7) OCCSc1nc(NCc2ccc(-c3ccccn3)cc2)c2[nH]nc(C3CCC3)c2n1: 9 nM
8) CSc1nc(NCc2ccc(-n3cccn3)cc2)c2n[nH]c(C(C)C)c2n1: 24 nM
9) CC(C)c1n[nH]c2c(NCc3ccc(-c4c[nH]cn4)cc3)nc(S)nc12: 464 nM
10) CCC(O)CSc1nc(NCc2ccc(-n3cccn3)cc2)c2n[nH]c(C(C)C)c2n1 (stereo unspecified): 25 nM
11) CC(C)c1n[nH]c2c(NCc3ccc(-c4cnccn4)cc3)nc(S)nc12: 978 nM
